Origin of values: PubChem BioAssay AID2060489

# Test system: 922993-354-T-J3-PDC complex spheroids, viability
# Procedure text: Anticancer human tumor 922993-354-T-J3-PDC patient-derived endometrial carcinoma cell line growth inhibition [GQUAD]
# Measurement parameters: curve of compound
pIC50: −log10 of the molar value.
Measured metric: pIC50

O=C(c1cc(Cc2n[nH]c(=O)c3ccccc23)ccc1F)N1CCN(C(=O)C2CC2)CC1    < 5.00
C=CC(=O)N1CCN(c2nc(=O)n(-c3c(C)ccnc3C(C)C)c3nc(-c4c(O)cccc4F)c(F)cc23)C(C)C1 (stereo not drawn)    < 5.00
COc1ccc([C@@H](O)c2cc(-c3ncnc4cc(N5CCOCC5)ccc34)c(F)cc2Cl)nn1    < 5.00

###

# Test system: 922993-354-T-J3-PDC complex spheroids, viability
# Procedure text: Anticancer human tumor 922993-354-T-J3-PDC cell line growth inhibition [GQUAD];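 note: spheroids exposed to compounds for seven days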
# Measurement parameters: curve of first compound; second compound 10 µM
pIC50: −log10 of the molar value.
Measured metric: pIC50

C#Cc1c(F)ccc2cc(O)cc(-c3ncc4c(N5CC6CCC(C5)N6)nc(OCC56CCCN5CC(F)C6)nc4c3F)c12 (configuration not stated) + Cc1[nH]c2ccc(F)cc2c1-c1nc2c3cccnc3c3ncccc3c2[nH]1    < 5.00
C=CCn1c(=O)c2cnc(Nc3ccc(N4CCN(C)CC4)cc3)nc2n1-c1cccc(C(C)(C)O)n1 + Cc1[nH]c2ccc(F)cc2c1-c1nc2c3cccnc3c3ncccc3c2[nH]1    5.36
Nc1ccn(C2OC(CO)C(O)C2(F)F)c(=O)n1 (configuration not stated) + Cc1cnc(CNC(=O)c2c(=O)c3ccc(N4CCCN(C)CC4)nc3n3c2sc2ccccc23)cn1    > 7.50
CC1COCCN1c1cc(C2(O)CC3CCC(C2)O3)c2cnn(-c3ccn[nH]3)c2n1 (configuration not stated) + CN(C)c1ccc(Nc2c3ccc(NC(=O)CCN4CCCC4)cc3nc3cc(NC(=O)CCN4CCCC4)ccc23)cc1    6.04
COc1cc(C2c3cc4c(cc3C(OC3OC5COC(C)OC5C(O)C3O)C3COC(=O)C23)OCO4)cc(OC)c1O (configuration not stated) + Cc1[nH]c2ccc(F)cc2c1-c1nc2c3cccnc3c3ncccc3c2[nH]1    < 5.00
CCCS(=O)(=O)Nc1ccc(F)c(C(=O)c2c[nH]c3ncc(-c4ccc(Cl)cc4)cc23)c1F + CN(C)c1ccc(Nc2c3ccc(NC(=O)CCN4CCCC4)cc3nc3cc(NC(=O)CCN4CCCC4)ccc23)cc1    < 5.00
Nc1ccn(C2OC(CO)C(O)C2(F)F)c(=O)n1 (configuration not stated) + Cc1[nH]c2ccc(F)cc2c1-c1nc2c3cccnc3c3ncccc3c2[nH]1    > 7.50

###

# System: 922993-354-T-J3-PDC complex spheroids, viability
# Procedure text: Anticancer human tumor 922993-354-T-J3-PDC cell line growth inhibition [GQUAD];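 note: spheroids exposed to compounds for seven days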;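 for viability, T/C: 100% = DMSO vehicle control viability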
# Measurement parameters: second compound 1 µM; first compound 10 µM; stronger effect = lower value
Attribute: viability, T/C
Measured metric: viability, T/C (%)

CC(=O)O[C@H]1C(=O)[C@@]2(C)[C@H]([C@H](OC(=O)c3ccccc3)[C@]3(O)C[C@H](OC(=O)[C@H](O)[C@@H](NC(=O)c4ccccc4)c4ccccc4)C(C)=C1C3(C)C)[C@]1(OC(C)=O)CO[C@@H]1C[C@@H]2O + Cc1cnc(CNC(=O)c2c(=O)c3ccc(N4CCCN(C)CC4)nc3n3c2sc2ccccc23)cn1    46
O=c1[nH]cc(F)c(=O)[nH]1 + CN(C)c1ccc(Nc2c3ccc(NC(=O)CCN4CCCC4)cc3nc3cc(NC(=O)CCN4CCCC4)ccc23)cc1    21.9
C=CCn1c(=O)c2cnc(Nc3ccc(N4CCN(C)CC4)cc3)nc2n1-c1cccc(C(C)(C)O)n1 + CN(C)c1ccc(Nc2c3ccc(NC(=O)CCN4CCCC4)cc3nc3cc(NC(=O)CCN4CCCC4)ccc23)cc1    17

###

# Test system: 922993-354-T-J3-PDC complex spheroids, viability
# Procedure text: Anticancer human tumor 922993-354-T-J3-PDC cell line growth inhibition [GQUAD];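 note: spheroids exposed to compounds for seven days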;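 for viability, T/C: 100% = DMSO vehicle control viability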
# Measurement parameters: second compound 0.0316 µM; first compound 0.1 µM; stronger effect = lower value
# strict inequality: viability, T/C < 80% yields t, everything else yields f

O=c1[nH]cc(F)c(=O)[nH]1 + CN(C)c1ccc(Nc2c3ccc(NC(=O)CCN4CCCC4)cc3nc3cc(NC(=O)CCN4CCCC4)ccc23)cc1    f
O=c1[nH]cc(F)c(=O)[nH]1 + Cc1cnc(CNC(=O)c2c(=O)c3ccc(N4CCCN(C)CC4)nc3n3c2sc2ccccc23)cn1    t
Cc1cccc(N(C)C(=O)C2C(O)CCN2c2nc(C)cc(C(F)(F)F)c2C#N)c1 (stereo not given) + CN(C)c1ccc(Nc2c3ccc(NC(=O)CCN4CCCC4)cc3nc3cc(NC(=O)CCN4CCCC4)ccc23)cc1    f

###

Attribute: viability, T/C
# Tested on: 922993-354-T-J3-PDC complex spheroids, viability
# Procedure text: Anticancer human tumor 922993-354-T-J3-PDC cell line growth inhibition [GQUAD];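 note: spheroids exposed to compounds for seven days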;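 for viability, T/C: 100% = DMSO vehicle control viability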
# Measurement parameters: second compound 0.0316 µM; first compound 10 µM; stronger effect = lower value
Measured metric: viability, T/C

CC(C)n1c(=O)n(C)c2cnc3cc(F)c(-c4ccc(OCCCN5CCCCC5)nc4)cc3c21 + Cc1[nH]c2ccc(F)cc2c1-c1nc2c3cccnc3c3ncccc3c2[nH]1    71.3%
CC(C)(O)C1CCC(Nc2ccc3ncc(-c4cccc(C(F)(F)F)c4)n3n2)CC1 (stereo not drawn) + Cc1[nH]c2ccc(F)cc2c1-c1nc2c3cccnc3c3ncccc3c2[nH]1    66.5%
CC1COCCN1c1cc(-c2ccnn2C)c2ccnc(-c3ccn[nH]3)c2n1 (stereo not drawn) + CN(C)c1ccc(Nc2c3ccc(NC(=O)CCN4CCCC4)cc3nc3cc(NC(=O)CCN4CCCC4)ccc23)cc1    20%

###

Attribute: viability, T/C
# Tested on: 922993-354-T-J3-PDC complex spheroids, viability
# Procedure text: Anticancer human tumor 922993-354-T-J3-PDC cell line growth inhibition [GQUAD];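 note: spheroids exposed to compounds for seven days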;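 for viability, T/C: 100% = DMSO vehicle control viability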
# Measurement parameters: second compound 0.0316 µM; first compound 0.316 µM; stronger effect = lower value
Measured metric: viability, T/C (%)

O=c1[nH]cc(F)c(=O)[nH]1 + Cc1[nH]c2ccc(F)cc2c1-c1nc2c3cccnc3c3ncccc3c2[nH]1    113
C=CC(=O)N1CCN(c2nc(=O)n(-c3c(C)ccnc3C(C)C)c3nc(-c4c(O)cccc4F)c(F)cc23)C(C)C1 (centres undefined) + Cc1cnc(CNC(=O)c2c(=O)c3ccc(N4CCCN(C)CC4)nc3n3c2sc2ccccc23)cn1    79.2
C=CCn1c(=O)c2cnc(Nc3ccc(N4CCN(C)CC4)cc3)nc2n1-c1cccc(C(C)(C)O)n1 + Cc1cnc(CNC(=O)c2c(=O)c3ccc(N4CCCN(C)CC4)nc3n3c2sc2ccccc23)cn1    81.6
CC1COCCN1c1cc(C2(S(C)(=N)=O)CC2)nc(-c2ccnc3[nH]ccc23)n1 (centres undefined) + CN(C)c1ccc(Nc2c3ccc(NC(=O)CCN4CCCC4)cc3nc3cc(NC(=O)CCN4CCCC4)ccc23)cc1    127

###

# Tested on: 922993-354-T-J3-PDC complex spheroids, viability
# Procedure text: Anticancer human tumor 922993-354-T-J3-PDC cell line growth inhibition [GQUAD];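 note: spheroids exposed to compounds for seven days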;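 for viability, T/C: 100% = DMSO vehicle control viability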
# Measurement parameters: second compound 3.16 µM; first compound 1 µM; stronger effect = lower value
Measured metric: viability, T/C (%)

COc1ncnc(C2CC2)c1-c1ncc2cnn(Cc3ccc(-c4nc(C(F)(F)F)cn4C(C)C)cc3)c2n1 + Cc1cnc(CNC(=O)c2c(=O)c3ccc(N4CCCN(C)CC4)nc3n3c2sc2ccccc23)cn1    49.2
COc1ccc([C@@H](O)c2cc(-c3ncnc4cc(N5CCOCC5)ccc34)c(F)cc2Cl)nn1 + Cc1cnc(CNC(=O)c2c(=O)c3ccc(N4CCCN(C)CC4)nc3n3c2sc2ccccc23)cn1    52.3
C#Cc1c(F)ccc2cc(O)cc(-c3ncc4c(N5CC6CCC(C5)N6)nc(OCC56CCCN5CC(F)C6)nc4c3F)c12 (stereo not drawn) + Cc1cnc(CNC(=O)c2c(=O)c3ccc(N4CCCN(C)CC4)nc3n3c2sc2ccccc23)cn1    44.6

###

# System: 922993-354-T-J3-PDC complex spheroids, viability
# Procedure text: Anticancer human tumor 922993-354-T-J3-PDC cell line growth inhibition [GQUAD];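 note: spheroids exposed to compounds for seven days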;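 for viability, T/C: 100% = DMSO vehicle control viability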
# Measurement parameters: second compound 0.316 µM; first compound 10 µM; stronger effect = lower value
# Excerpt: DNA G-quadruplex Stabilizer Agents in Combinations in Complex Spheroids A high-throughput screen of multi-cell type tumor spheroids was designed to identify active combinations of DNA G-quadruplex stabilizer agents and targeted small molecules. […] Compounds. […] If the clinical Cmax for an agent had not been determined, the highest concentration tested was 10 microM. […]
Measured metric: viability, T/C (%)

Cc1cccc(N(C)C(=O)C2C(O)CCN2c2nc(C)cc(C(F)(F)F)c2C#N)c1 (centres undefined) + CN(C)c1ccc(Nc2c3ccc(NC(=O)CCN4CCCC4)cc3nc3cc(NC(=O)CCN4CCCC4)ccc23)cc1    69.6
C#Cc1c(F)ccc2cc(O)cc(-c3ncc4c(N5CC6CCC(C5)N6)nc(OCC56CCCN5CC(F)C6)nc4c3F)c12 (centres undefined) + Cc1cnc(CNC(=O)c2c(=O)c3ccc(N4CCCN(C)CC4)nc3n3c2sc2ccccc23)cn1    50.3
COc1ncnc(C2CC2)c1-c1ncc2cnn(Cc3ccc(-c4nc(C(F)(F)F)cn4C(C)C)cc3)c2n1 + Cc1[nH]c2ccc(F)cc2c1-c1nc2c3cccnc3c3ncccc3c2[nH]1    79.8
Cc1cccc(N(C)C(=O)C2C(O)CCN2c2nc(C)cc(C(F)(F)F)c2C#N)c1 (centres undefined) + Cc1[nH]c2ccc(F)cc2c1-c1nc2c3cccnc3c3ncccc3c2[nH]1    99.3
COc1ncnc(C2CC2)c1-c1ncc2cnn(Cc3ccc(-c4nc(C(F)(F)F)cn4C(C)C)cc3)c2n1 + Cc1cnc(CNC(=O)c2c(=O)c3ccc(N4CCCN(C)CC4)nc3n3c2sc2ccccc23)cn1    52.7
O=C(NO)c1cnc(N2CCN(S(=O)(=O)c3ccc4ccccc4c3)CC2)nc1 + Cc1cnc(CNC(=O)c2c(=O)c3ccc(N4CCCN(C)CC4)nc3n3c2sc2ccccc23)cn1    2.24
C=CCn1c(=O)c2cnc(Nc3ccc(N4CCN(C)CC4)cc3)nc2n1-c1cccc(C(C)(C)O)n1 + Cc1cnc(CNC(=O)c2c(=O)c3ccc(N4CCCN(C)CC4)nc3n3c2sc2ccccc23)cn1    33.8
CC(C)(O)C1CCC(Nc2ccc3ncc(-c4cccc(C(F)(F)F)c4)n3n2)CC1 (centres undefined) + Cc1[nH]c2ccc(F)cc2c1-c1nc2c3cccnc3c3ncccc3c2[nH]1    62.6
COc1ccc([C@@H](O)c2cc(-c3ncnc4cc(N5CCOCC5)ccc34)c(F)cc2Cl)nn1 + CN(C)c1ccc(Nc2c3ccc(NC(=O)CCN4CCCC4)cc3nc3cc(NC(=O)CCN4CCCC4)ccc23)cc1    71.4
C#Cc1c(F)ccc2cc(O)cc(-c3ncc4c(N5CC6CCC(C5)N6)nc(OCC56CCCN5CC(F)C6)nc4c3F)c12 (centres undefined) + Cc1[nH]c2ccc(F)cc2c1-c1nc2c3cccnc3c3ncccc3c2[nH]1    124
COc1cccc2c1C(=O)c1c(O)c3c(c(O)c1C2=O)CC(O)(C(=O)CO)CC3OC1CC(N)C(O)C(C)O1 (centres undefined) + Cc1[nH]c2ccc(F)cc2c1-c1nc2c3cccnc3c3ncccc3c2[nH]1    56.1
Nc1ccn(C2OC(CO)C(O)C2(F)F)c(=O)n1 (centres undefined) + CN(C)c1ccc(Nc2c3ccc(NC(=O)CCN4CCCC4)cc3nc3cc(NC(=O)CCN4CCCC4)ccc23)cc1    11.2
CC(=O)O[C@H]1C(=O)[C@@]2(C)[C@H]([C@H](OC(=O)c3ccccc3)[C@]3(O)C[C@H](OC(=O)[C@H](O)[C@@H](NC(=O)c4ccccc4)c4ccccc4)C(C)=C1C3(C)C)[C@]1(OC(C)=O)CO[C@@H]1C[C@@H]2O + Cc1[nH]c2ccc(F)cc2c1-c1nc2c3cccnc3c3ncccc3c2[nH]1    50.3
CC1COCCN1c1cc(-c2ccnn2C)c2ccnc(-c3ccn[nH]3)c2n1 (centres undefined) + CN(C)c1ccc(Nc2c3ccc(NC(=O)CCN4CCCC4)cc3nc3cc(NC(=O)CCN4CCCC4)ccc23)cc1    19.6
